Molecular target: Axl(h) (Homo sapiens, UniProt P30530)
Construct: purchased Caliper Life Sciences
Sequence (P30530 26-894): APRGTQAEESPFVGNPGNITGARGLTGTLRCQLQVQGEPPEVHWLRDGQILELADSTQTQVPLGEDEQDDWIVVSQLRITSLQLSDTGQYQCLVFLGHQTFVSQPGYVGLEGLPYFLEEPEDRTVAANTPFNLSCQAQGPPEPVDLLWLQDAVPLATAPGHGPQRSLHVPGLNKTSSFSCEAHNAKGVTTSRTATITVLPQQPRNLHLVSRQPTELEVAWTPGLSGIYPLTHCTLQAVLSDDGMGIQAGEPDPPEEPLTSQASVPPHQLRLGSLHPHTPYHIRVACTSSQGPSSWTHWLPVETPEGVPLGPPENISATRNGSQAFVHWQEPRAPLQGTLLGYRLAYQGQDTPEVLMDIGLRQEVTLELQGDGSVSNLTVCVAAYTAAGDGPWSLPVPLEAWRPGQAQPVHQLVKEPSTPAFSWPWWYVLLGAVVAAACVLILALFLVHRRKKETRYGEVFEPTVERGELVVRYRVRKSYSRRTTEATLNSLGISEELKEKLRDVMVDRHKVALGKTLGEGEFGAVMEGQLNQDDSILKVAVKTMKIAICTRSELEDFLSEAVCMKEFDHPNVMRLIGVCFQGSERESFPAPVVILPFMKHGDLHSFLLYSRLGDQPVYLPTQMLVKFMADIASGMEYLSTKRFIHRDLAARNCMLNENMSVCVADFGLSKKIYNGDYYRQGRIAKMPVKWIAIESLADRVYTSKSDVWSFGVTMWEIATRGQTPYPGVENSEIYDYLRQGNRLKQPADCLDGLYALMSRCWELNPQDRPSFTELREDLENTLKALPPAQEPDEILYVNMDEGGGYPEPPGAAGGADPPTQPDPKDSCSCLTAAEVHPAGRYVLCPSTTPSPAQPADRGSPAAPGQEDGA
Assay: Other kinases, single-concentration inhibition (Table 3)
Assay type: biochemical
Conditions: 1 μM
readout-name: % inhibition Axl(h) (%)

{"compound": "NC(=O)[C@H]1[C@H]2C[C@H]3[C@H]1Nc1nc(ncc1F)Nc1cccc(c1)OCCS[C@@H]3C2", "result-units": "%", "% inhibition Axl(h)": 40}

[a] C=C[C@@H]1C[C@@H]2/C=C/COc3cccc(c3)Nc3ncc(F)c(n3)N[C@H]2[C@H]1C(N)=O (single isomer, unassigned)
[b] N#Cc1ccc2cc1NC(=O)CS[C@@H]1C[C@@H]3C[C@H]1[C@@H](Nc1nc(ncc1F)N2)[C@H]3C(N)=O
Dear colleague, could you let me know whether a or b has the lower recorded % inhibition Axl(h)? Thanks. Answer format: the label of the selected item.
b
(b: 55%, a: 107%)

* * *

Target: Tie2(h) (Homo sapiens, UniProt Q02763)
Construct: purchased Caliper Life Sciences
Sequence (Q02763 23-1124): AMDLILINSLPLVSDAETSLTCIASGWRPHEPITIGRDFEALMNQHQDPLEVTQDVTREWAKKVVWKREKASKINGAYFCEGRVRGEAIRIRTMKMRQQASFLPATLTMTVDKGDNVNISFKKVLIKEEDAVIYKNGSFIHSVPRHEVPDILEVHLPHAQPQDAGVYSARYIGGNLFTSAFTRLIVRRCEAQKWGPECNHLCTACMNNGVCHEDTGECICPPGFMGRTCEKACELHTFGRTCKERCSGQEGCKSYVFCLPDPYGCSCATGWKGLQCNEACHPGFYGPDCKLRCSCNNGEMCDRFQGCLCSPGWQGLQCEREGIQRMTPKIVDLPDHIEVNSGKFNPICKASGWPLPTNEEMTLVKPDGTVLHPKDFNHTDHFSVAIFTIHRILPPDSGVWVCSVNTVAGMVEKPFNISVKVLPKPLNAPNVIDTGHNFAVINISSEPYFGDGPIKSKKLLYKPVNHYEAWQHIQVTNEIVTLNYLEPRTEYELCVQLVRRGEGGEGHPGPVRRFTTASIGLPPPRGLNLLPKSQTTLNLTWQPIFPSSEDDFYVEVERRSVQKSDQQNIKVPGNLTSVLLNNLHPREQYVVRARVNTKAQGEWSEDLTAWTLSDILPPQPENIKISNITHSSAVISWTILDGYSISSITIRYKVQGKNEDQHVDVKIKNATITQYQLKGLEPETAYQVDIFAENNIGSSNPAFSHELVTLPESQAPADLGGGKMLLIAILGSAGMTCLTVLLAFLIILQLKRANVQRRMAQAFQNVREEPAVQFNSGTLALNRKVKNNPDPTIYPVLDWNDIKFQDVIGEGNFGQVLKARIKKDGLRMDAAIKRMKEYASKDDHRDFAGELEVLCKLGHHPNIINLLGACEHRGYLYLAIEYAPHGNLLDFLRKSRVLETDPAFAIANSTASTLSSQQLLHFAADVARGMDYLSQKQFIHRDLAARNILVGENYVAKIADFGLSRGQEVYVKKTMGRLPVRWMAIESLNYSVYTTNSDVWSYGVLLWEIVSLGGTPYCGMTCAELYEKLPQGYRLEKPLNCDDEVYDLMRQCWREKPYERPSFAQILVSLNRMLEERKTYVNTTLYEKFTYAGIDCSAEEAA
Experiment: Other kinases, single-concentration inhibition (Table 3)
Format: biochemical
Details: 1 μM
readout-name: % inhibition Tie2(h) (%)

Reference set (6 entries):
{"compound": "N#Cc1ccc2cc1NC(=O)CS[C@@H]1C[C@@H]3C[C@H]1[C@@H](Nc1nc(ncc1F)N2)[C@H]3C(N)=O", "result-units": "%", "test-value": 44}
{"compound": "NC(=O)[C@H]1[C@H]2C[C@H]3[C@H]1Nc1nc(ncc1F)Nc1cccc(c1)OCCS[C@@H]3C2", "result-units": "%", "test-value": 8}
{"compound": "CC[C@@H]1C[C@@H]2CCCOc3cccc(c3)Nc3ncc(F)c(n3)N[C@H]2[C@H]1C(N)=O (single isomer, unassigned)", "result-units": "%", "test-value": 104}
{"compound": "NC(=O)[C@H]1[C@H]2C[C@H]3[C@H]1Nc1nc(ncc1F)Nc1cccc(c1)CSS[C@@H]3C2", "result-units": "%", "test-value": 101}
{"compound": "NC(=O)[C@H]1[C@H]2C[C@H]3[C@H]1Nc1nc(ncc1F)Nc1cccc(c1)C(=O)CS[C@@H]3C2", "result-units": "%", "test-value": 91}
{"compound": "C=C[C@@H]1C[C@@H]2/C=C/COc3cccc(c3)Nc3ncc(F)c(n3)N[C@H]2[C@H]1C(N)=O (single isomer, unassigned)", "result-units": "%", "test-value": 99}

[1] CC[C@@H]1C[C@@H]2/C=C\COc3cccc(c3)Nc3ncc(F)c(n3)N[C@H]2[C@H]1C(N)=O (single isomer, unassigned)
[2] CN1CCN(c2ccc3cc2NC(=O)CS[C@@H]2C[C@@H]4C[C@H]2[C@@H](Nc2nc(ncc2F)N3)[C@H]4C(N)=O)CC1
[3] NC(=O)[C@H]1[C@H]2C[C@H]3[C@H]1Nc1nc(ncc1F)Nc1cccc(c1)NC(=O)CS[C@@H]3C2
[4] CN1CCN(c2ccc3cc2OCCS[C@@H]2C[C@@H]4C[C@H]2[C@@H](Nc2nc(ncc2F)N3)[C@H]4C(N)=O)CC1
Hello, I need these entries ordered by % inhibition Tie2(h), highest reading first. Thanks! Write the labels in rank order as requested.
1, 4, 2, 3

// data source = patent US8815872B2
